# measurement target: Protein-glutamine gamma-glutamyltransferase (Homo sapiens)
# Sequence (P21980 whole entry): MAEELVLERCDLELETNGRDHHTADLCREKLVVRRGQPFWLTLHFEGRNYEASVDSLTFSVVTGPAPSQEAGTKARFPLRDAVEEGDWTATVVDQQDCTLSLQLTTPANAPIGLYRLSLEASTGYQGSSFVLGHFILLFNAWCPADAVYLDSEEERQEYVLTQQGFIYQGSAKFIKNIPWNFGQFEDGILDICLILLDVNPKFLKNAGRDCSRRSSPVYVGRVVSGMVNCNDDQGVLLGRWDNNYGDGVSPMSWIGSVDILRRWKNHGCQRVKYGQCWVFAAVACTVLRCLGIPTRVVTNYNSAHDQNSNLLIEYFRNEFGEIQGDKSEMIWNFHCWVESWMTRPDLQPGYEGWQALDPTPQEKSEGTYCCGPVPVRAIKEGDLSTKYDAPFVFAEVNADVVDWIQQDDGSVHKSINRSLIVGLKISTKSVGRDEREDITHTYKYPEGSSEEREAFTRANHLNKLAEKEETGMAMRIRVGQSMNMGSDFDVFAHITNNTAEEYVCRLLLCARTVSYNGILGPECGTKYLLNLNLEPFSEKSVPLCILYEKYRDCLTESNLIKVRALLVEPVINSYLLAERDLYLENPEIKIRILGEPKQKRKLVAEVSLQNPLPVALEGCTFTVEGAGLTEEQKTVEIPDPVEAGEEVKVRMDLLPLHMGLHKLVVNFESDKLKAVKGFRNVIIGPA
# assay info: Inhibition of recombinant human TG2 expressed in Escherichia coli assessed as inhibition constant using Cbz-Glu(gamma-p-nitrophenyl ester)Gly (AL5) as substrate by colorimetric assay
readout label: Ki (µM)
Your answer should be a plain number; it is taken to be in µM.

Here is how some molecules turned out for Ki.
{"molecule smiles": "C=CC(=O)NCC(=O)N1CCN(C(=O)c2cccc3ccccc23)CC1", "Ki, µM": 25}
{"molecule smiles": "C=CC(=O)NCCCC(=O)N1CCN(S(=O)(=O)c2cccc3c(N(C)C)cccc23)CC1", "Ki, µM": 74.2}
{"molecule smiles": "C=CC(=O)NCCCCCC(=O)N1CCN(C(=O)c2cccc3ccccc23)CC1", "Ki, µM": 109}
{"molecule smiles": "C=CC(=O)NCCC(=O)N1CCN(S(=O)(=O)c2cccc3c(N(C)C)cccc23)CC1", "Ki, µM": 64.5}

Shift focus to the following entry.
Record `C=CC(=O)NCCC(=O)N1CCN(C(=O)c2cccc3ccccc23)CC1` ; system Protein-glutamine gamma-glutamyltransferase (Homo sapiens); Ki = 51.6
